From: patent EP4722219A1

target: SMARCA2 (Homo sapiens, UniProt P51531); experiment: SMARCA2 degradation in SW1573 cells (Western blot); format: cell-based; parameters: endogenous in cells; host or cells: SW1573; details: 80 nM, 24 hours
Sequence (P51531 whole entry): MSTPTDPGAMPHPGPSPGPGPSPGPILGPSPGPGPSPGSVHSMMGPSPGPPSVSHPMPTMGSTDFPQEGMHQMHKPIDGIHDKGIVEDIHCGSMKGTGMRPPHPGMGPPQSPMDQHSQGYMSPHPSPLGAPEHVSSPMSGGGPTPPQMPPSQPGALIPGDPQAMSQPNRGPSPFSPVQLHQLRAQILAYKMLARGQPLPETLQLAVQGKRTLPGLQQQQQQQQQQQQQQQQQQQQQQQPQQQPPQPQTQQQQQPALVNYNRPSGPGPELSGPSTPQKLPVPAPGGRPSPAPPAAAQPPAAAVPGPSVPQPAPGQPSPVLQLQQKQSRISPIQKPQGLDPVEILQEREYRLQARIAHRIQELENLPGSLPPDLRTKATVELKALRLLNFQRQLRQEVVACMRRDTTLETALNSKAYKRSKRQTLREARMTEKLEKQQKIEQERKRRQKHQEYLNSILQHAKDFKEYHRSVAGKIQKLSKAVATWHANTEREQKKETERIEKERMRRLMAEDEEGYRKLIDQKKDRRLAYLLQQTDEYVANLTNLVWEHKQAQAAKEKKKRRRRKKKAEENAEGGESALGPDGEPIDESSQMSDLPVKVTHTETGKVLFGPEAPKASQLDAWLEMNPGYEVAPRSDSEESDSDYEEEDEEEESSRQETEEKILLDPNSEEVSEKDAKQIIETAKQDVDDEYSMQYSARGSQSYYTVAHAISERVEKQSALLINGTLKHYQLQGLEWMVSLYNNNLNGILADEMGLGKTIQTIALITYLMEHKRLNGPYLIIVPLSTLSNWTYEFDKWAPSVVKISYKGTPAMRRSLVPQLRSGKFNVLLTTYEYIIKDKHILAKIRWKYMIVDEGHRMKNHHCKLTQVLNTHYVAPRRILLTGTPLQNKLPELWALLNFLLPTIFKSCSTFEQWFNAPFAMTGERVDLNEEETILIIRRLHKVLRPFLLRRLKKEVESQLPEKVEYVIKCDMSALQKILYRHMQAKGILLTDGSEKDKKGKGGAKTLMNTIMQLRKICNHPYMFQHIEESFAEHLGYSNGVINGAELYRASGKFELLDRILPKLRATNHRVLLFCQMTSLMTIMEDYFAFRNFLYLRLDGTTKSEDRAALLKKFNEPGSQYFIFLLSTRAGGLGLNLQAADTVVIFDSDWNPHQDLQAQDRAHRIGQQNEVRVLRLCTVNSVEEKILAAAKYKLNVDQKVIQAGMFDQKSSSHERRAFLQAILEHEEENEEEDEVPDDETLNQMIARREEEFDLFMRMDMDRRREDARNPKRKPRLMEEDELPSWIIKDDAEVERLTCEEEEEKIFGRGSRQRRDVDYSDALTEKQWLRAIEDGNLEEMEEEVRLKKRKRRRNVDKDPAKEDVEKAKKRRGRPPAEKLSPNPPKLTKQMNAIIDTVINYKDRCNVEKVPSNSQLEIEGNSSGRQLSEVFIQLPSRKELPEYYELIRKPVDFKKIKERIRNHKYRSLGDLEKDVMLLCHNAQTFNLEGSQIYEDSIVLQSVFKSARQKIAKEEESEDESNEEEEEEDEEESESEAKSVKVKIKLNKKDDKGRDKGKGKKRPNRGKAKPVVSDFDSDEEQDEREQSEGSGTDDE
Returns satisfied if the recorded Degradation rate of SMARCA2 in SW1573 cells (%) is greater than or equal to 30%, and not satisfied otherwise.

CN(C(=O)c1ccc2c(c1)OC[C@H]1CN(C3CC4(CCC(C#Cc5cc(-c6ccccc6O)nnc5N)CC4)C3)CCN21)[C@H]1CCC(=O)NC1=O (some centres unmarked) = not satisfied
Nc1nnc(-c2ccccc2O)cc1C#CC1CCC2(CC1)CC(N1CC3(CCc4cc(F)c(C(=O)N[C@H]5CCC(=O)NC5=O)cc4O3)C1)C2 (some centres unmarked) = not satisfied
Cn1c(=O)n(C2CCC(=O)NC2=O)c2cc3c(cc21)C1(CCN(C2CC4(CCC(C#Cc5cc(-c6ccccc6O)nnc5N)CC4)C2)CC1)CO3 (centres unmarked) = satisfied
Nc1nnc(-c2ccccc2O)cc1C#CC1CCC2(CC1)CC(N1CCC3(CC1)COc1cc(NC4CCC(=O)NC4=O)ccc1C3)C2 (centres unmarked) = satisfied
Nc1nnc(-c2ccccc2O)cc1C#CC1CCC2(CC1)CC(N1CCN3c4ccc(C(=O)N[C@H]5CCC(=O)NC5=O)cc4OCC[C@H]3C1)C2 (some centres unmarked) = satisfied
Cn1c(=O)n(C2CCC(=O)NC2=O)c2ccc3c(c21)OCC31CCN(C[C@H]2CC[C@H](n3cc(-c4cc(-c5ccccc5O)nnc4N)cn3)CC2)CC1 (some centres unmarked) = satisfied

Assess whether reported Degradation rate of SMARCA2 in SW1573 cells (%) for Nc1nnc(-c2ccccc2O)cc1C#CC1CCC2(CC1)CC(N1CCC3(CCc4ccc(NC5CCC(=O)NC5=O)cc4O3)CC1)C2 (centres unmarked) sits at 30% or higher.
not satisfied

Assess whether reported Degradation rate of SMARCA2 in SW1573 cells (%) for Nc1nnc(-c2ccccc2O)cc1C#CC1CCC2(CC1)CC(N1CCC3(CC1)COc1cc(F)c(C(=O)N[C@H]4CCC(=O)NC4=O)cc13)C2 (some centres unmarked) sits at 30% or higher.
not satisfied

Assess whether reported Degradation rate of SMARCA2 in SW1573 cells (%) for Nc1nnc(-c2ccccc2O)cc1C#CC1CCC2(CC1)CC(N1CCN3c4cc(F)c(C(=O)N[C@H]5CCC(=O)NC5=O)cc4OC[C@H]3C1)C2 (some centres unmarked) sits at 30% or higher.
satisfied

Assess whether reported Degradation rate of SMARCA2 in SW1573 cells (%) for Nc1nnc(-c2ccccc2O)cc1C#CC1CCC2(CC1)CC(N1CCN3c4ccc(C(=O)N[C@H]5CCC(=O)NC5=O)c(F)c4OC[C@H]3C1)C2 (some centres unmarked) sits at 30% or higher.
not satisfied

Assess whether reported Degradation rate of SMARCA2 in SW1573 cells (%) for Cn1c(=O)n(C2CCC(=O)NC2=O)c2cc3c(cc21)C1(CCN(C2CN(c4cc(-c5ccccc5O)nnc4N)C2)CC1)CO3 (centres unmarked) sits at 30% or higher.
not satisfied

* * *

molecules and their reported Degradation rate of ERα in T-47D cells (%)
target: ERα (Homo sapiens, UniProt P03372); assay: ERα degradation in T-47D cells (Western blot); type: cell-based; details: 10nM, 4 hours
Sequence (P03372 whole entry): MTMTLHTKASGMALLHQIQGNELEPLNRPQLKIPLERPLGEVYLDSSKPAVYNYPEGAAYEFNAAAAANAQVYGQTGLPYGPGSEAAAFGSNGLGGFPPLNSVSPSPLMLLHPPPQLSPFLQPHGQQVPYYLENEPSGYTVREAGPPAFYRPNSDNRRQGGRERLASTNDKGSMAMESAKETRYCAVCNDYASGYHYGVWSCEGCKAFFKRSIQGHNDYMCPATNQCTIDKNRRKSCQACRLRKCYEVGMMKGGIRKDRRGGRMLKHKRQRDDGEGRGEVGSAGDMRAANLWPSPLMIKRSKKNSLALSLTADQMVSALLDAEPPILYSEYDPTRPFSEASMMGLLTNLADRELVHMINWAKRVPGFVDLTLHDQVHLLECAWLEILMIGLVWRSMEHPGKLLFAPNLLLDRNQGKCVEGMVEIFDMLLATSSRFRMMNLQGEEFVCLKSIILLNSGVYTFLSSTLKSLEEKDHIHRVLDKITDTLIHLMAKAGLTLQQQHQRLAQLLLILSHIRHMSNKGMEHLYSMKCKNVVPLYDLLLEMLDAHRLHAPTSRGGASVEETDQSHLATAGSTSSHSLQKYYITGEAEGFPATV
Kindly provide the numeric value in % only, without the unit symbol.

Respond only with Degradation rate of ERα in T-47D cells (%) recorded for C[C@@H]1Cc2cc(O)ccc2C(c2c(F)cc(N3CCC(C(=O)N4CCC(N5CCC6(CC5)COc5c6ccc6c5n(C)c(=O)n6C5CCC(=O)NC5=O)CC4)CC3)cc2F)N1CC(F)F (stereo partly shown)
17

Respond only with Degradation rate of ERα in T-47D cells (%) recorded for Cn1c(=O)n(C2CCC(=O)NC2=O)c2ccc3c(c21)OCC31CCN(C2CC3(C2)CN(c2ccc([C@@H]4c5ccc(O)cc5CC[C@@H]4c4ccccc4)cc2)C3)CC1 (stereo partly shown)
23

Respond only with Degradation rate of ERα in T-47D cells (%) recorded for Cn1c(=O)n(C2CCC(=O)NC2=O)c2cc3c(cc21)C1(CCN(C2CCN(C(=O)C4CCN(c5ccc([C@@H]6c7ccc(O)cc7CC[C@@H]6c6ccccc6)cc5)CC4)CC2)CC1)CO3 (stereo partly shown)
61

Respond only with Degradation rate of ERα in T-47D cells (%) recorded for C[C@@H]1Cc2cc(O)ccc2C(c2c(F)cc(N3CCC4(CC3)CC(N3CC5(CCC6(CC5)COc5c6ccc6c5CN(C5CCC(=O)NC5=O)C6=O)C3)C4)cc2F)N1CC(F)F (stereo partly shown)
59

Respond only with Degradation rate of ERα in T-47D cells (%) recorded for Cn1c(=O)n(C2CCC(=O)NC2=O)c2ccc3c(c21)OCC31CCN(CC2CCN(C(=O)C3CCN(c4ccc([C@@H]5c6ccc(O)cc6CC[C@@H]5c5ccccc5)cc4)CC3)CC2)CC1 (stereo partly shown)
65

Respond only with Degradation rate of ERα in T-47D cells (%) recorded for O=C1CCC(N2Cc3c(ccc4c3OCC43CCC4(CCN(CC5CCN(c6ccc([C@@H]7c8ccc(O)cc8CC[C@@H]7c7ccccc7)cc6)CC5)CC4)CC3)C2=O)C(=O)N1 (stereo partly shown)
81

Respond only with Degradation rate of ERα in T-47D cells (%) recorded for O=C1CCC(Nc2ccc3c(c2)OC[C@@H]2CN(C4CCC5(CC4)CN(c4ccc([C@@H]6c7ccc(O)cc7CC[C@@H]6c6ccccc6)cc4)C5)CCN32)C(=O)N1 (stereo partly shown)
1

Respond only with Degradation rate of ERα in T-47D cells (%) recorded for O=C1CCC(N2Cc3c(ccc4c3OCC43CCC4(CC3)CN(C3CCC5(CC3)CN(c3ccc([C@@H]6c7ccc(O)cc7CC[C@@H]6c6ccccc6)cc3)C5)C4)C2=O)C(=O)N1 (stereo partly shown)
77

Respond only with Degradation rate of ERα in T-47D cells (%) recorded for O=C1CCC(N2Cc3c(ccc4c3OCC43CCC4(CCN(C5CCN(c6ccc([C@@H]7c8ccc(O)cc8CC[C@@H]7c7ccccc7)cc6)CC5)CC4)CC3)C2=O)C(=O)N1 (stereo partly shown)
71

Respond only with Degradation rate of ERα in T-47D cells (%) recorded for Cn1c(=O)n(C2CCC(=O)NC2=O)c2cc3c(cc21)C1(CCN(C2CCC4(CC2)CCN(c2ccc([C@@H]5c6ccc(O)cc6CC[C@@H]5c5ccccc5)cc2)CC4)CC1)CO3 (stereo partly shown)
51

* * *

target: ERα (Homo sapiens); assay: ERα degradation in MCF-7 cells (Western blot); type: cell-based; design: host or cells: MCF-7; details: 1nM, 4 hours
molecules and their reported Degradation rate of ERα in MCF-7 cells (%)
Kindly provide the numeric value in % only, without the unit symbol.

Example entries and their recorded answers appear below.
O=C1CCC(Nc2ccc3c(c2)OC2(CC3)CCN(C[C@H]3CC[C@@H](OC4CCN(c5ccc([C@@H]6c7ccc(O)cc7CC[C@@H]6c6ccccc6)cc5)CC4)CC3)CC2)C(=O)N1 (some centres unmarked) [ER-P-43] = -13
O=C1CCC(Nc2ccc3c(c2)COC[C@H]2CN(CC4CCC(OC5CCN(c6ccc([C@@H]7c8ccc(O)cc8CC[C@@H]7c7ccccc7)cc6)CC5)CC4)CCN32)C(=O)N1 (single isomer, unassigned) [ER-P-50] = 1
Cn1c(=O)n(C2CCC(=O)NC2=O)c2ccc3c(c21)OCC31CCN(C2CC3(CCN(c4ccc([C@@H]5c6ccc(O)cc6CC[C@@H]5c5ccccc5)cc4)CC3)C2)CC1 (some centres unmarked) [ER-P-15] = 22
O=C1CCC(Nc2ccc3c(c2)COC[C@H]2CN(C[C@H]4CC[C@@H](OC5CCN(c6ccc([C@@H]7c8ccc(O)cc8CC[C@@H]7c7ccccc7)cc6)CC5)CC4)CCN32)C(=O)N1 (some centres unmarked) [ER-P-34] = 5

Respond only with Degradation rate of ERα in MCF-7 cells (%) recorded for Cn1c(=O)n(C2CCC(=O)NC2=O)c2ccc3c(c21)OCC31CCN(C2CC3(CCN(c4ccc([C@@H]5c6ccc(O)cc6CC[C@@H]5c5ccccc5)cc4)CC3)C2)CC1 (some centres unmarked) [ER-P-17]
37

Respond only with Degradation rate of ERα in MCF-7 cells (%) recorded for Cn1c(=O)n(C2CCC(=O)NC2=O)c2ccc3c(c21)OCC31CCN(C2CCC3(CC2)CCN(c2ccc([C@@H]4c5ccc(O)cc5CC[C@@H]4c4ccccc4)cc2)CC3)CC1 (some centres unmarked) [ER-P-16]
43

Respond only with Degradation rate of ERα in MCF-7 cells (%) recorded for C[C@@H]1Cc2cc(O)ccc2C(c2c(F)cc(N3CCC4(CCC(N5CC6(CCC7(CC6)COc6c7ccc7c6CN(C6CCC(=O)NC6=O)C7=O)C5)CC4)CC3)cc2F)N1CC(F)F (some centres unmarked) [ER-P-21]
50
